Target system: Mtb20S (Mycobacterium tuberculosis, UniProt P9WHT9)
Sequence (P9WHT9 58-291): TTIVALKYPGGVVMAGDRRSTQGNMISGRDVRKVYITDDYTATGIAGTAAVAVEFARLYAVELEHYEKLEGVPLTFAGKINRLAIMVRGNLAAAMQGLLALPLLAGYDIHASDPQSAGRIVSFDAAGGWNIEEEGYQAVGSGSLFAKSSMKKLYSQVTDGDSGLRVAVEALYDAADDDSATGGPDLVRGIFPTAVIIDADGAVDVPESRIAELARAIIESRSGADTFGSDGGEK
Type: biochemical
Condition label: qualitative statement; comparison as stated in the sentence
Quantity kind: inhibitory potency against Mtb20S (in words)

[in] Report its inhibitory potency against Mtb20S (in words) with Mtb20S (Mycobacterium tuberculosis, UniProt P9WHT9) as the test system: Cc1cc(C(=O)N[C@@H](CC(=O)N2CCC[C@@H]2c2ccccc2)C(=O)N[C@@H](C)c2ncc(-c3ccccc3)[nH]2)no1
[out] highly potent

[in] Report its inhibitory potency against Mtb20S (in words) with Mtb20S (Mycobacterium tuberculosis, UniProt P9WHT9) as the test system: Cc1cc(C(=O)N[C@@H](CC(=O)N2CCC[C@@H]2c2ccccc2)C(=O)N[C@@H](C)c2ncc(-c3ccccc3F)[nH]2)no1
[out] highly potent
